- Target Entity: human oxytocin receptor (Homo sapiens, UniProt P30559)
- Construct: host or cells: CHO cells (pcDNA3.1 vector)
- Sequence (P30559 whole entry): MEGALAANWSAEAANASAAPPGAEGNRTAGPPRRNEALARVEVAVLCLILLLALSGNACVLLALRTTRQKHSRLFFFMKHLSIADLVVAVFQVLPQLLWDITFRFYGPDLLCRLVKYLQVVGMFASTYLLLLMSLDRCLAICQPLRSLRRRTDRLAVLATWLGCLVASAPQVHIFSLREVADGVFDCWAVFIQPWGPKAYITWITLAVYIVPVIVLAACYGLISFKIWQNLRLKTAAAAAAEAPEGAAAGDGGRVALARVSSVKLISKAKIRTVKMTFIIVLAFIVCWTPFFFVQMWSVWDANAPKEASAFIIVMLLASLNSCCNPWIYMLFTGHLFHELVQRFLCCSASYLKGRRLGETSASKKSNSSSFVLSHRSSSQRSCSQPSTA
- Method Description: Oxytocin binding in Chinese Hamster Ovary cell membranes expressing human oxytocin receptors
- Test Settings: 100 nM, CHO cell membranes, [3H]oxytocin, values without parentheses
Label TRUE when OT % inhibition @ 100% nM is at or above 80%; anything below gets FALSE.

> print(dat)
                                    compound  label
 1  COC(=O)c1ccc2c(c1)N(C(=O)c1ccc(-c3ccccc3C(F)(F)F)c(C)c1)Cc1cccn1C2 [Example 26]  FALSE
 2  COc1cc(C(=O)N2Cc3ccc(C(=O)N4CCC[C@H]4CN4CCCC4)n3Cc3ccccc32)ccc1-c1cccc2ccccc12 [Example 262]  FALSE
 3  COc1ccccc1-c1ccc(C(=O)N2Cc3ccc(C(=O)N4CCC[C@H]4CN4CCCC4)n3Cc3ccccc32)cc1OC [Example 269]   TRUE
 4  COc1ccccc1-c1ccc(C(=O)N2Cc3ccc(C(=O)N4CC[C@@H](N(C)C)C4)n3Cc3ccccc32)cc1OC [Example 282]   TRUE
 5  COc1ccccc1-c1ccc(C(=O)N2Cc3ccc(C(=O)N4CCC(N5CCCC5)CC4)n3Cc3ccccc32)cc1OC [Example 145]  FALSE
 6  COc1cccc(-c2cc(OC)c(C(=O)N3Cc4ccc(C(=O)N5CCC[C@H]5CN5CCCC5)n4Cc4ccccc43)cc2Cl)c1 [Example 268]   TRUE
 7  O=C(c1ccc2n1Cc1ccccc1N(C(=O)c1ccc(-c3cccc4ccccc34)cc1Cl)C2)N1CCC(N2CCCCC2)CC1 [Example 121]  FALSE
 8  Cc1cccc(N2CCN(C(=O)c3ccc4n3Cc3ccccc3N(C(=O)c3ccc(-c5ccccc5C(F)(F)F)c(C)c3)C4)CC2C)c1 (stereo not drawn) [Example 5]  FALSE
 9  Cc1ccccc1-c1ccc(C(=O)N2Cc3ccc(C(=O)N4CCC[C@H]4CN4CCCC4)n3Cc3ccccc32)cc1C [Example 260]   TRUE
10  Cc1ccccc1-c1ccc(C(=O)N2Cc3ccc(C(=O)N4CC[C@@H](N(C)C)C4)n3Cc3ccccc32)cc1 [Example 280]   TRUE
11  Cc1ccccc1-c1ccc(C(=O)N2Cc3ccc(C(=O)N4CC[C@@H](N(C)C)C4)n3Cc3ccccc32)cc1C [Example 274]   TRUE
12  COc1cc(C(=O)N2Cc3ccc(C(=O)N4CC[C@@H](N(C)C)C4)n3Cc3ccccc32)ccc1-c1cccc2ccccc12 [Example 276]  FALSE
